B1: PLAGL1 (parent)
chain: EKPPSGTKEKKHQCDHCERCFYTR

Variants of: B1
Test: protein stability index of a GFP-peptide fusion (GPS, HEK-293T) (PSI 1-6); higher = more stable;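 further: lentivirally expressed fusions sorted by FACS into six bins by GFP to DsRed ratio, PSI derived from sequencing read proportions per bin multiplied by bin number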
Details: c terminus: a fixed tail appended
Would you mind telling me the reported protein stability index of each entry?
A bare number is all that is needed in reply.

Q: Name the reported protein stability index value associated with the variant EKPPSGTKEKKGQCDHCERCFYTR [H12G]
Result: 2.42

Q: I have this variant here, EKPPSGTKEKKHQCDHCERCFYTW [R24W] , and I need its recorded protein stability index.
Result: 4.29

Q: Query: protein stability index; subject: EKPPSGTKEKKIQCDHCERCFYTR [H12I]
Result: 2.6

Q: State the recorded protein stability index for this entry: EKPPSGTKEKKHQCDHLERCFYTR [C17L]
Result: 4

Q: Reported protein stability index, variant EKPPSGTKEKKHQCDHCERCFCTR [Y22C] : ____
Result: 4.84

Q: Which protein stability index is listed for EKPPSGTKEKKHQCDMCERCFYTR [H16M] ?
Result: 3.66

Q: Look at this variant and give its reported protein stability index. EKPPSGTKEKKHQCRHCERCFYTR [D15R]
Result: 2.2

Q: Which protein stability index value belongs to EKPPSGTKEKKHQCDHCERCFYTI [R24I] ?
Result: 4.37

Q: Given the entry EKPPSFTKEKKHQCDHCERCFYTR [G6F] , report its measured protein stability index.
Result: 3.79

Q: I would be grateful if you could share the reported protein stability index for EKPPSGTKEKKHQCLHCERCFYTR [D15L] .
Result: 2.91

Q: Form field: reported protein stability index of EKPPSGTYEKKHQCDHCERCFYTR [K8Y]
Result: 3.47

Q: Returns the measured protein stability index for the input variant. Input: EKPPSGTKEKKHQCDHWERCFYTR [C17W]
Result: 3.13

Q: protein stability index for EKPPSGTKEKKHQCDQCERCFYTR [H16Q] ?
Result: 3.82

Q: Look up protein stability index for this variant: EKPPPGTKEKKHQCDHCERCFYTR [S5P]
Result: 3.54

Q: Look at this variant and give its reported protein stability index. EKPPSGTKEKKHQCDHCERCFLTR [Y22L]
Result: 4.35

Q: Can you share its protein stability index? I mean this variant: EKPPSGTKEKKHQCDHCERCVYTR [F21V]
Result: 3.95

Q: Name the recorded protein stability index for EKPPSGTKEKKHQCDHCERCFDTR [Y22D] .
Result: 4.58

Q: Can you share its protein stability index? I mean this variant: EKPPSGTKEKKHQCDHCERCFVTR [Y22V]
Result: 3.69

Q: Sample EKPPSGTKEKKHACDHCERCFYTR [Q13A] — what was its protein stability index?
Result: 3.4

Q: Consider the variant shown here: EKPPSGTKEKWHQCDHCERCFYTR [K11W] What is its recorded protein stability index?
Result: 4.32

Q: # input variant: QKPPSGTKEKKHQCDHCERCFYTR [E1Q] ; wanted: its protein stability index
Result: 3.87

Q: protein stability index lookup needed for EIPPSGTKEKKHQCDHCERCFYTR [K2I] , thanks.
Result: 3.72

Q: Give the measured protein stability index of WKPPSGTKEKKHQCDHCERCFYTR [E1W] .
Result: 3.35

Q: Sample EKPPSGTKEKKHQCDHCEACFYTR [R19A] — what was its protein stability index?
Result: 4.31

Q: Given the entry EKPPSGTKEKKHQCDHCMRCFYTR [E18M] , report its measured protein stability index.
Result: 2.6

Q: Entry EKEPSGTKEKKHQCDHCERCFYTR [P3E] has what protein stability index?
Result: 3.83

Q: GET /values?readout=protein stability index&item= EKPPSGTKENKHQCDHCERCFYTR [K10N]
Result: 3.76

Q: Any idea what its protein stability index is? The variant is EKPPSGTKEKKHQCDHCQRCFYTR [E18Q]
Result: 2.45

Q: For EKPPSGTKEKKHQCDHCERCFITR [Y22I] , what is its reported protein stability index?
Result: 4.17

Q: Dear colleague, I am looking for the recorded protein stability index of the following variant: EKPPSGTKEKKHQCDHSERCFYTR [C17S]
Result: 3.63

Q: For the variant shown here, EKPPSGTKEKKQQCDHCERCFYTR [H12Q] , give the reported protein stability index.
Result: 3.23

Q: Looking for the measured protein stability index of EKPPSGTKEKKHGCDHCERCFYTR [Q13G] , can you help?
Result: 2.34

Q: Please give the measured protein stability index for this variant: EKPPSGTKEKKHQCDHCERCFYRR [T23R]
Result: 3.4

Q: State the recorded protein stability index for this entry: EKPPSGTKEKKHQCDHCEECFYTR [R19E]
Result: 4.54

Q: I have this variant here, EKPPCGTKEKKHQCDHCERCFYTR [S5C] , and I need its recorded protein stability index.
Result: 3.72

Q: Form field: reported protein stability index of ECPPSGTKEKKHQCDHCERCFYTR [K2C]
Result: 3.62

Q: Given the entry EKPPSGTKEKKHQCDHCERCFYTV [R24V] , report its measured protein stability index.
Result: 4.07

Q: # get_value(readout='protein stability index', item= EKPPSGTKEKKHQCDHIERCFYTR [C17I] )
Result: 3.49

Q: # protein stability index lookup, item EKPPSGTKEKKHQCDHCERCFETR [Y22E]
Result: 4.67

Q: Tell me the measured protein stability index of EKPPSGMKEKKHQCDHCERCFYTR [T7M] , please.
Result: 3.56

Q: What value of protein stability index has been reported for the following variant? EKPPSGTKEKKHQCDHCERCFYYR [T23Y]
Result: 3.83

Q: Which value of protein stability index has been reported for EKPPSGTKEKKHQFDHCERCFYTR [C14F] in the records?
Result: 3.81

Q: Looking for the measured protein stability index of EKPPSGTPEKKHQCDHCERCFYTR [K8P] , can you help?
Result: 4.25

Q: // query protein stability index value for entry EKPPSGTKEKKTQCDHCERCFYTR [H12T]
Result: 3.24

Q: Using the record for EDPPSGTKEKKHQCDHCERCFYTR [K2D] , report its protein stability index.
Result: 4.26

Q: If you can, please state the reported protein stability index value of EKPPIGTKEKKHQCDHCERCFYTR [S5I] .
Result: 3.97

Q: I am curious: what protein stability index value has been reported for EKPPSGTKEKKHQIDHCERCFYTR [C14I] ?
Result: 3.73

Q: # query: protein stability index of entry EKPPSGTKEKKHQCDHCEDCFYTR [R19D]
Result: 4.91

Q: I would be grateful if you could share the reported protein stability index for EKPPSGTKEKKHQCDNCERCFYTR [H16N] .
Result: 4.72

Q: Data request, read-out protein stability index, for EKPPSGTKEKKHQCDHCCRCFYTR [E18C]
Result: 2.69

Q: Recorded protein stability index for EKPPSGTKEKKHQCDHEERCFYTR [C17E] , please?
Result: 3.69

Q: Tell me the measured protein stability index of EKPPSGTKEKKHQCDHCERCFYVR [T23V] , please.
Result: 4.11

Q: Item under review: EKPPSGTKEKKHQCVHCERCFYTR [D15V] . Reported protein stability index?
Result: 2.68

Q: I would be grateful if you could share the reported protein stability index for EKPPSGTKEKKHQCDHCERCIYTR [F21I] .
Result: 4.52

Q: Need protein stability index of EKPPSGTKEKKHQCDHCERCFYTS [R24S] , thanks.
Result: 4.33

Q: So what's the measured protein stability index for this one? EKPPSGTKEKKHQCDHCERCFYTP [R24P]
Result: 4.9

Q: Which measured protein stability index value corresponds to EFPPSGTKEKKHQCDHCERCFYTR [K2F] ?
Result: 3.44

Provenance of the data: the supplement of paper PMC10567573
